Target: human IL-17RA on cells (human PBMC; human foreskin fibroblasts) (human, UniProt Q96F46 33-866)
Experiment: cell-based or functional assay
Quantity measured: % Inhib. of IL-5 production (TSLP treated human PBMC + IL-2 + IL-25), Expt. 3 (%)
# value in %; strip the unit string

Binder | Value observed
2.46.1 (antibody, V domains shown) VH: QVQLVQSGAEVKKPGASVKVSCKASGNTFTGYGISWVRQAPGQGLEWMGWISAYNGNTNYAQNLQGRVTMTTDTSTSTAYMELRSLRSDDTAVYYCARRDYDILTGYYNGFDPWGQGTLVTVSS VL: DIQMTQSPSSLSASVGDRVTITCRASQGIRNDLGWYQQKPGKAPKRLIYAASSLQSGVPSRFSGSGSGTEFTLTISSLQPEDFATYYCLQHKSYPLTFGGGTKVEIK | 0

Output measured % Inhib. of IL-5 production (TSLP treated human PBMC + IL-2 + IL-25), Expt. 3 for this item: 2.23.1 (antibody, V domains shown) VH: QVQLVESGGGLVKPGGSLRLSCAASGFTFSDYYMSWIRQAPGKGLEWVSYISSSGSTIYYADSVKGRFTISRDNAKNSLYLQMNSLRAEDTAVYYCARDRTYYFGSGSYEGMDVWGQGTTVTVSS VL: EILMTQSPATLSVSPGERATLSCRASQSVYSNLAWYQQKPGQAPRLLISGASTRATGIPARFSGSGSGTEFTLTISSLQSEDFAVYYCQQYYNWPWTFGQGTKVEIK 0

Output measured % Inhib. of IL-5 production (TSLP treated human PBMC + IL-2 + IL-25), Expt. 3 for this item: 3.1545.1 (antibody, V domains shown) VH: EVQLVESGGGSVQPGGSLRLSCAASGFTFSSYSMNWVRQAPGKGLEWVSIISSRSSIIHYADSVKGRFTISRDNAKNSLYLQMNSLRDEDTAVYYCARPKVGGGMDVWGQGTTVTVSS VL: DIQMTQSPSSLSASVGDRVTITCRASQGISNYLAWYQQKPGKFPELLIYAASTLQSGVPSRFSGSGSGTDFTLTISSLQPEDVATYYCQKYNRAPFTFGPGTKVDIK 0
